variants and their reported yeast fitness (ln)
B1: tRNA (parent)
chain: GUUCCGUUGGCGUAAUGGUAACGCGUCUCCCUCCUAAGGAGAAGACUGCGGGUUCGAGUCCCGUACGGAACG

Variants of: B1
Assay: yeast fitness, log relative to wild type (ln ratio); higher = fitter; tRNA-Arg(CCU), competitive growth, 37 C, 1 M NaCl
Write the value as a bare number.

variant="U2C G6U C27U A43C C46U A70U" value=-0.151
variant="G6A C27U C46U A69G A70U C71U" value=-0.331
variant="A43C A69G C71U" value=-0.138
variant="G6U C46U C66A A70G C71U" value=-0.15
variant="G6A A43C C46U C66U A69G C71U" value=-0.558
variant="G1A A43C A69G A70U" value=-0.257
variant="U2C A43C C46U C66U A69G A70G" value=-0.0788
variant="U2G G6A C27U A43C C46U C66U C71U" value=-0.282

For the variant shown here, G1A U2C G6U C27U A69G A70U C71U , give the reported yeast fitness (ln).
-0.467

For the variant shown here, G1A U2G G6A C27U A43C C46U A69G A70U C71U , give the reported yeast fitness (ln).
-0.443

For the variant shown here, G1A U2G C27U C46U C66U A70U , give the reported yeast fitness (ln).
-0.123
